test: modulators of yeast start codon fidelity, primary screen, whole organism, S. cerevisiae, single point, plate reader (AID 602363);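 further: firefly luciferase made from a UUG start codon reports start codon fidelity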; conditions: S. cerevisiae UUG-firefly luciferase reporter, luminescence/redox ratio; at 18.7 µM; active compounds read high
The campaign covered roughly 350,000 compounds. About 450 (0.13%) were called active. This excerpt belongs to a sample that is enriched for actives.
PROPERTY NAME: activity score (%)
Give bare numbers, in %.

| CHEMICAL STRUCTURE | activity score [%] |
| --- | --- |
| O=C(Nc1ccc(Oc2ccccc2)cc1)c1ccco1 | 570 |

List activity score for every entry below, keeping the order given.
1. C[C@H](CO)N1C[C@H](C)[C@@H](CN(C)Cc2ccc(Cl)c(Cl)c2)Oc2c(NC(=O)C3CCCCC3)cccc2C1=O
2. CO[C@H]1CN(C)C(=O)c2cc(NC(=O)c3cc(C)on3)ccc2OC[C@H](C)N(C(C)=O)C[C@H]1C
3. C[C@H]1CCCCO[C@H](CN(C)CC2CCCCC2)[C@@H](C)CN([C@@H](C)CO)C(=O)c2cc(NS(=O)(=O)c3ccc(Cl)cc3)ccc2O1
4. O=S(=O)(N[C@@H]1CC[C@@H](CCn2cc(-c3ccccn3)nn2)O[C@@H]1CO)c1cccc(Cl)c1

a:
0.419
7.59
19.2
-16.7

---

test: modulators of yeast start codon fidelity, primary screen, whole organism, S. cerevisiae, single point, plate reader (AID 602363);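 further: firefly luciferase made from a UUG start codon reports start codon fidelity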; details: S. cerevisiae UUG-firefly luciferase reporter, luminescence/redox ratio; at 18.7 µM; active compounds read high
In all, about 350,000 compounds went through this assay and about 450 (0.13%) were called active. Shown is part of a subset that was picked to be rich in actives.
Exercise: state measured activity score for each of the compounds provided.
One number for each entry, in %.

| COMPOUND | activity score (%) |
| --- | --- |
| O=C(Nc1ccc(Cl)cc1)C1c2cccc[n+]2CC(=O)N1Cc1ccc2c(c1)OCO2 (stereo unspecified) | -9.17 |
| Cc1ccccc1S(=O)(=O)N1[C@H](C#N)[C@H](c2ccccc2)[C@H]1CO | -7.59 |
| C[C@H]1CCCCO[C@H](CN(C)C(=O)NC2CCCCC2)[C@@H](C)CN([C@@H](C)CO)C(=O)c2cc(NC(=O)Nc3ccc4c(c3)OCO4)ccc2O1 | -4.52 |
| CC1CCC(NC(=O)C2c3ccccc3C(=O)N2Cc2ccc3c(c2)OCO3)CC1 (stereo unspecified) | 619 |
| CCc1ccc(CN2C(=O)c3ccccc3C2C(=O)NCC2CCCO2)cc1 (stereo unspecified) | -17.4 |
| COc1ccccc1-c1cnc2c(c1)C(=O)N([C@H](C)CO)C[C@@H](C)[C@@H](CN(C)CC1CCCC1)O2 | -0.682 |
| COc1cccc(S(=O)(=O)Nc2ccc3c(c2)C(=O)N(C)C[C@@H](OC)[C@H](C)CN(C(=O)Cc2cccnc2)[C@H](C)CO3)c1 | -4.59 |
| CO[C@@H]1CN(C)C(=O)c2cc(NC(=O)NC3CCCCC3)ccc2OC[C@H](C)N(CC2CC2)C[C@H]1C | -4.52 |

List activity score for every entry below, keeping the order given.
1. Cc1cc(C)c(S(=O)(=O)Nc2c(C)n(C)n(-c3ccccc3)c2=O)cc1[N+](=O)[O-]
2. O=C(Nc1ccc(Cl)cc1)N1C[C@@H]2[C@H](c3ccccc31)[C@@H](CO)N2C(=O)c1cccnc1
3. C[C@H](CO)N1C[C@H](C)[C@H](CN(C)Cc2ccc3c(c2)OCO3)Oc2c(cccc2N(C)C)C1=O
4. C[C@H]1CN([C@@H](C)CO)C(=O)c2cc(Br)cnc2O[C@@H]1CN(C)C(=O)c1ccccc1F
5. Cc1ccccc1OC(=O)Cn1c(C(F)(F)F)nc2ccccc21

a:
1: 3.79; 2: -17; 3: -9.31; 4: 1.14; 5: -13

---

Exercise: state measured activity score for each of the molecules provided.
experiment: modulators of yeast start codon fidelity, primary screen, whole organism, S. cerevisiae, single point, plate reader (AID 602363);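 further: firefly luciferase made from a UUG start codon reports start codon fidelity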; details: S. cerevisiae UUG-firefly luciferase reporter, luminescence/redox ratio; at 18.7 µM; active compounds read high
Hit rate of the full screen: of about 350,000 compounds, about 450 (0.13%) were called active. The entries come from a sample that favours actives as a whole.
Answers are plain numbers, in %.

| CHEMICAL STRUCTURE | activity score [%] |
| --- | --- |
| COc1ccccc1C#Cc1ccc([C@H]2[C@H](CO)N3CCCCN(C(=O)C4CCC4)C[C@@H]23)cc1 | 29.8 |
| COc1ccc(NC(=O)N(C)C[C@@H]2OCCCC[C@H](C)Oc3ccc(NS(=O)(=O)c4cccs4)cc3C(=O)N([C@@H](C)CO)C[C@@H]2C)cc1 | -14.6 |
| CCCNC(=O)[C@@H]1[C@@H](CO)[C@@H]2Cn3c(ccc(-c4cccc(OC)c4)c3=O)[C@H]1N2C(=O)NCCC | 4.04 |
| CCC(=O)N(C)C[C@H]1Oc2cc(C#CC3CCCC3)ccc2S(=O)(=O)N([C@H](C)CO)C[C@@H]1C | -3 |
| C[C@@H]1CN([C@H](C)CO)S(=O)(=O)c2ccc(-c3ccccc3)cc2O[C@@H]1CN(C)C(=O)C1CC1 | 1.27 |
| O=C(Cc1ccncc1)NCC[C@@H]1CC[C@H](NC(=O)Nc2ccc(Cl)cc2)[C@@H](CO)O1 | 34.2 |

q: Which measured activity score value corresponds to C[C@@H]1CN([C@H](C)CO)C(=O)c2cc(C#CC3CCCC3)cnc2O[C@H]1CN(C)C(=O)C1CC1 ?
a: -6.27

---

Exercise: state measured activity score for each of the molecules provided.
assay: modulators of yeast start codon fidelity, primary screen, whole organism, S. cerevisiae, single point, plate reader (AID 602363);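 further: firefly luciferase made from a UUG start codon reports start codon fidelity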; details: S. cerevisiae UUG-firefly luciferase reporter, luminescence/redox ratio; at 18.7 µM; active compounds read high
Screen size: about 350,000 compounds; about 450 (0.13%) were called active. This is one part of a sample in which actives are shown more often than they occur.

Previously resolved entries follow.
| CHEMICAL STRUCTURE | activity score |
| --- | --- |
| O=C(c1cccnc1)N1C[C@H]2[C@@H](c3ccccc31)[C@H](CO)N2C(=O)C1CCCCC1 | -1.65% (inactive) |
| COc1cccc(-c2ccc3c(c2)O[C@H](CN(C)C(=O)c2ccccc2F)[C@@H](C)CN([C@@H](C)CO)S3(=O)=O)c1 | 0.848% (inactive) |
| C[C@H](CO)N1C[C@H](C)[C@H](CN(C)S(=O)(=O)c2cn(C)cn2)Oc2c(NC(=O)C3CCOCC3)cccc2C1=O | -12.8% (inactive) |
| COCC(=O)N(C)C[C@H]1Oc2ncc(-c3cccc(OC)c3)cc2C(=O)N([C@H](C)CO)C[C@H]1C | 11.3% (inactive) |
| O=C(C1CCC1)N1C[C@@H]2[C@H](c3ccccc31)[C@H](CO)N2C(=O)c1ccccc1 | 53.9% (inactive) |

List activity score for every entry below, keeping the order given.
1. COc1ccccc1-c1ccc([C@@H]2[C@@H](CO)N3CCCCN(S(=O)(=O)c4cn(C)cn4)C[C@H]23)cc1
2. CCC(=O)N1[C@@H](CO)[C@@H]2c3ccccc3N(C(=O)c3cnccn3)C[C@@H]21
3. C=CCOC(=O)[C@H]1[C@@H]2C(=O)O[C@@H](c3ccccc3)[C@@H](c3ccccc3)N2[C@@H](c2ccc(OCCOC(=O)[C@H]3C[C@H]4C(=O)NCC(=O)N4[C@H]3c3ccc(O)cc3)cc2)[C@]12C(=O)Nc1ccccc12

a:
["-0.721% (inactive)", "-8.18% (inactive)", "-7.32% (inactive)"]

List activity score for every entry below, keeping the order given.
1. C[C@H]1CN([C@@H](C)CO)C(=O)c2cccc(NC(=O)C3CC3)c2O[C@@H]1CN(C)S(=O)(=O)c1ccc(F)cc1
2. CN1C[C@@H]2[C@H](c3ccccc31)[C@@H](CO)N2C(=O)Nc1ccccc1

a:
-5.43% (inactive)
-3.49% (inactive)

List activity score for every entry below, keeping the order given.
1. O=C(N[C@H]1CC[C@@H](CCNS(=O)(=O)c2ccc(Cl)cc2)O[C@H]1CO)c1cccc(F)c1
2. C[C@H](CO)N1C[C@H](C)[C@H](CN(C)Cc2ccc(Cl)c(Cl)c2)OCCCC[C@H](C)Oc2ccc(NC(=O)NC3CCCCC3)cc2C1=O

a:
["12.6% (inactive)", "-1.13% (inactive)"]

---

assay: modulators of yeast start codon fidelity, primary screen, whole organism, S. cerevisiae, single point, plate reader (AID 602363);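 further: firefly luciferase made from a UUG start codon reports start codon fidelity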; conditions: S. cerevisiae UUG-firefly luciferase reporter, luminescence/redox ratio; at 18.7 µM; active compounds read high
In all, about 350,000 compounds went through this assay and about 450 (0.13%) were called active. This excerpt belongs to a sample that is enriched for actives.
PROPERTY NAME: activity score (%)
Numbers only, in %.

Previously resolved entries follow.
| CHEMICAL STRUCTURE | MEASURE UNIT | EXPERIMENTAL RESULT |
| --- | --- | --- |
| COc1ccc(S(=O)(=O)Nc2ccc3c(c2)CC(=O)N([C@H](C)CO)C[C@@H](C)[C@H](CN(C)S(=O)(=O)c2c(C)noc2C)O3)cc1 | % | -0.184 |
| Cc1ccccc1-c1cnc2c(c1)C(=O)N([C@@H](C)CO)C[C@@H](C)[C@@H](CN(C)CC1CCOCC1)O2 | % | -10.7 |

q: Which measured activity score value corresponds to C[C@H](CO)N1C[C@H](C)[C@@H](CN(C)Cc2ccc(Cl)c(Cl)c2)Oc2ccc(NC(=O)Nc3ccc(C(F)(F)F)cc3)cc2CC1=O ?
a: -6.41

src = PubChem BioAssay AID602363
